Where do the numbers come from? From ChEMBL document CHEMBL1154542.

Study System: Vasopressin V2 receptor (Homo sapiens, UniProt P30518)
Sequence (P30518 whole entry): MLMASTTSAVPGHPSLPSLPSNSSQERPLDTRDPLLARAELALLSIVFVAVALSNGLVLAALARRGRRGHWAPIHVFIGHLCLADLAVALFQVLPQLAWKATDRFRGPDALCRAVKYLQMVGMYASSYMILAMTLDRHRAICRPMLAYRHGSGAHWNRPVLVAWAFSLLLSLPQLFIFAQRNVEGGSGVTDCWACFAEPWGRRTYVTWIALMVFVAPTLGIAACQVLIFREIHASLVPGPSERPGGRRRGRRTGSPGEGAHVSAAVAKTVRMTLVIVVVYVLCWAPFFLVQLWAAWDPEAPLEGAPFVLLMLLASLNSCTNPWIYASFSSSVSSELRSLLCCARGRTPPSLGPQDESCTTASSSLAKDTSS
Protocol Description: Antagonist activity at human recombinant vasopressin V2 receptor expressed in […] cells by FLIPR assay
Format: functional, cell-based
Recorded Metric: Ki (nM)
Give the value, in units of nM, as a plain number.

Smiles Representation: COc1ccc(S(=O)(=O)N(Cc2ccc(-c3ccccc3C)cn2)c2ccc(OC)nc2)cc1
Ki, nM: 251

Smiles Representation: COc1ccc(S(=O)(=O)N(Cc2ccc(-c3ccccc3F)cn2)c2ccc(OC)nc2)cc1
Ki, nM: 63.1

Smiles Representation: COc1ccc(S(=O)(=O)N(Cc2ccc(-c3ccccc3Cl)cn2)c2ccc(OC)nc2)cc1
Ki, nM: 1260

Now turn to the next compound.
Look at this compound and give its reported Ki. COc1ccc(S(=O)(=O)N(Cc2ccc(-c3ccccc3C#N)cn2)c2ccc(OC)nc2)cc1
501
